- study-target: T1, human LAG-3-His (human, UniProt P18627 23-450)
- T1 construct: Bought antigen (ArcoBiosystems), 100 nM in solution in the ForteBio assay; also called human LAG-3 antigen (ArcoBiosystems); hLAG-3; not shown: His tag
- T1 sequence (looked up): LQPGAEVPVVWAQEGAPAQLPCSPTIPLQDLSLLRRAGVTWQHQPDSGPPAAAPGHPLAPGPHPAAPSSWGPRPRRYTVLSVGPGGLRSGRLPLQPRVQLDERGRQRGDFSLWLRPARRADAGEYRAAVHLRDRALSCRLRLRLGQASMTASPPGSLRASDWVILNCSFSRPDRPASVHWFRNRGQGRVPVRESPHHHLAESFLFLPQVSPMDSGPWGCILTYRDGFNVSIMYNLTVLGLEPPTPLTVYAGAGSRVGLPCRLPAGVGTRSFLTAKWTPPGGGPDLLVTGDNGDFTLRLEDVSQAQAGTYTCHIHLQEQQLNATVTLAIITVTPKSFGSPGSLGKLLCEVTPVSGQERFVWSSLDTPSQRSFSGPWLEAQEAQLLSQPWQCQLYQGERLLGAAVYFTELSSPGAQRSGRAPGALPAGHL
- assay-notes: BLI (ForteBio), antibody on AHQ tip, human LAG-3-His 100 nM in solution, univalent
# Kd per entry
# value in nM; strip the unit string

Check out these entries, answers already filled in.
1. ADI-26869 (antibody, human IgG4 S228P, kappa, F234A L235A, V domains shown, Fully human antibody from yeast display; IgG4 heavy chain constant region with kappa light chain; expressed in HEK293 cells; also called anti-human LAG-3 antibody ADI-26869; parent antibody) VH: QLQLQESGPGLVKPSETLSLTCTVSGGSISSSDYYWGWIRQPPGKGLEWIGSIYYSGSTYYNPSLKSRVTISVDTSKNQFSLKLSSVTAADTAVYYCARVRTWDAAFDIWGQGTMVTVSS VL: DIQMTQSPSSLSASVGDRVTITCQASQDISNYLNWYQQKPGKAPKLLIYDASNLETGVPSRFSGSGSGTDFTFTISSLQPEDIATYYCQQVHALPPWTFGGGTKVEIKR | 7.88
2. ADI-31851 (antibody, human IgG4 S228P, kappa, F234A L235A, V domains shown, IgG4 heavy chain constant region with kappa light chain; expressed in HEK293 cells) VH: QLQLQESGPGLVKPSETLSLTCTVSGGSISSPDYYWGWIRQPPGKGLEWIGSIVYSGYTYYNPSLKSRVTISVDTSKNQFSLKLSSVTAADTAVYYCARVRTWDQSFDIWGQGTMVTVSS VL: DIQMTQSPSSLSASVGDRVTITCQAGQDISNYLNWYQQKPGKAPKLLIYDASNLETGVPSRFSGSGSGTDFTFTISSLQPEDIATYYCQQVLELPPWTFGGGTKVEIKR | 0.606
3. BAP050 (antibody, V domains shown) VH: QIQLVQSGPELKKPGETVKISCKASGFTLTNYGMNWVRQTPGKGLKWMGWINTDTGEPTYADDFKGRFAFSLETSASTASLQINNLKNADTATYFCARNPPYYYGTNNAEAMDYWGQGTAVTVSS VL: DIQMTQTTSSLSASLGDRVTISCSSSQDISNYLNWYQQKPDGTVKVLIYYTSTLHLGVPSRFSGSGSGTDYSLTISNLELEDIATYYCQQYYNLPWTFGGGTKLEIK | 0.844

Shift focus to the following entry.
[in] Kd for ADI-31853 (antibody, human IgG4 S228P, kappa, F234A L235A, V domains shown, IgG4 heavy chain constant region with kappa light chain; expressed in HEK293 cells) VH: QLQLQESGPGLVKPSETLSLTCTVSGGSIYSESYYWGWIRQPPGKGLEWIGSIVYSGYTYYNPSLKSRVTISVDTSKNQFSLKLSSVTAADTAVYYCARVRTWDAAFDIWGQGTMVTVSS VL: DIQMTQSPSSLSASVGDRVTITCQASQDISNYLNWYQQKPGKAPKLLIYDASNLETGVPSRFSGSGSGTDFTFTISSLQPEDIATYYCQQVLELPPWTFGGGTKVEIKR ?
[out] 0.622
